Test system: Yap1 mRNA
Experiment: Dose-dependent inhibition of human Yap1 in A-431 cells (Example 8, 10,000 cells per well, RTS4814)
Format: cell-based
Details: 2000.00 nM; A-431 cells, 10,000 cells per well, free uptake, approximately 48 hours, RTS4814
Strand notation (5' to 3'): a small letter for the sugar, then the base; units joined by * are phosphorothioate-linked, units joined directly phosphodiester-linked; [ ] holds rarer units or linkages, { } end groups; capitals alone tell only the bases. k = constrained ethyl (cEt); [5mC] = 5-methylcytosine; d = 2'-deoxy (DNA)
Category | rule: reported Yap1 mRNA, % UTC within range, see low group: < 5 % UTC; middle group: ≥ 5 % UTC and < 7 % UTC; high group: ≥ 7 % UTC

substance | target or test system | category
1074251 (antisense kT*k[5mC]*kT*dG*dA*dT*d[5mC]*dG*dA*dT*dG*dT*dG*kA*kT*kT) [compound 1074251] | Yap1 mRNA | high group
1074801 (kA*k[5mC]*kA*dA*dA*dT*dA*dG*dT*dG*d[5mC]*dT*dT*kT*kG*kG; antisense) [compound 1074801] | Yap1 mRNA | high group
1074628 (DNA kG*k[5mC]*k[5mC]*dT*dG*dT*dT*dA*dT*dG*dA*dA*d[5mC]*k[5mC]*k[5mC]*kT) [compound 1074628] | Yap1 mRNA | middle group
1074443 (kT*k[5mC]*kA*dG*dA*d[5mC]*d[5mC]*dA*dG*dT*dA*dA*dA*kT*k[5mC]*kA; antisense) [compound 1074443] | Yap1 mRNA | high group
1076491 (kA*kG*k[5mC]*d[5mC]*dA*dA*dA*dA*dT*dA*dG*dG*dT*kG*kA*kG; antisense) [compound 1076491] | Yap1 mRNA | high group
1076330 (antisense kG*kA*kA*dT*dT*dA*dT*dA*d[5mC]*dT*dG*dG*d[5mC]*kT*kA*k[5mC]) [compound 1076330] | Yap1 mRNA | low group
1074737 (kT*kT*k[5mC]*dA*dG*dG*dT*d[5mC]*dA*dG*dT*dA*d[5mC]*kA*kG*kA; antisense) [compound 1074737] | Yap1 mRNA | middle group
1076370 (antisense kG*kA*kT*dT*dA*dT*dT*d[5mC]*dG*dG*dT*dA*dT*kT*kT*kT) [compound 1076370] | Yap1 mRNA | low group
1074852 (kA*kA*kT*dT*dG*dT*dT*dA*dT*dG*dA*dT*dA*kG*kG*k[5mC]; antisense) [compound 1074852] | Yap1 mRNA | low group
1074762 (kG*k[5mC]*kT*dA*d[5mC]*d[5mC]*d[5mC]*dA*dA*dT*dA*d[5mC]*dA*kA*k[5mC]*k[5mC]; antisense) [compound 1074762] | Yap1 mRNA | high group
1074595 (DNA kT*kA*kG*dA*dA*dG*dT*dA*dG*dG*dA*dG*d[5mC]*kA*kA*kG; antisense) [compound 1074595] | Yap1 mRNA | low group
1076049 (kA*kG*kA*dT*dT*dA*dA*dA*dG*dG*d[5mC]*dT*dG*kG*kA*kA; antisense) [compound 1076049] | Yap1 mRNA | middle group
1075137 (kG*kA*kT*dT*dA*dA*dA*dT*dA*d[5mC]*dT*dG*dA*k[5mC]*k[5mC]*kA; antisense) [compound 1075137] | Yap1 mRNA | low group
1075689 (k[5mC]*kA*kA*d[5mC]*dT*dA*dT*dA*d[5mC]*dA*dA*dG*dG*k[5mC]*kA*kA; antisense) [compound 1075689] | Yap1 mRNA | high group
1074723 (antisense kG*kG*kT*dA*dA*dA*dG*dG*dA*dA*dG*dA*dT*k[5mC]*kT*k[5mC]) [compound 1074723] | Yap1 mRNA | high group
1075465 (antisense kG*kA*kT*dT*dT*dA*dT*dT*dG*dA*dA*d[5mC]*dT*kG*kA*kG) [compound 1075465] | Yap1 mRNA | high group
1075078 (antisense k[5mC]*kA*kA*d[5mC]*dT*dA*dT*dA*d[5mC]*dG*dG*dT*d[5mC]*k[5mC]*kA*kT) [compound 1075078] | Yap1 mRNA | low group
1074798 (kG*k[5mC]*kT*dT*dT*dG*dG*dA*dA*dG*dA*dT*d[5mC]*kT*kG*kA) [compound 1074798] | Yap1 mRNA | middle group

Measured values drawn from patent US11214803B2 for this set.
